inhibition: recorded values
- Measured target: Serine/threonine-protein kinase PAK 6 (Homo sapiens) (UniProt Q9NQU5);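 further: values are mean percent inhibition of PAK6 kinase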
- Sequence (Q9NQU5 whole entry, looked up): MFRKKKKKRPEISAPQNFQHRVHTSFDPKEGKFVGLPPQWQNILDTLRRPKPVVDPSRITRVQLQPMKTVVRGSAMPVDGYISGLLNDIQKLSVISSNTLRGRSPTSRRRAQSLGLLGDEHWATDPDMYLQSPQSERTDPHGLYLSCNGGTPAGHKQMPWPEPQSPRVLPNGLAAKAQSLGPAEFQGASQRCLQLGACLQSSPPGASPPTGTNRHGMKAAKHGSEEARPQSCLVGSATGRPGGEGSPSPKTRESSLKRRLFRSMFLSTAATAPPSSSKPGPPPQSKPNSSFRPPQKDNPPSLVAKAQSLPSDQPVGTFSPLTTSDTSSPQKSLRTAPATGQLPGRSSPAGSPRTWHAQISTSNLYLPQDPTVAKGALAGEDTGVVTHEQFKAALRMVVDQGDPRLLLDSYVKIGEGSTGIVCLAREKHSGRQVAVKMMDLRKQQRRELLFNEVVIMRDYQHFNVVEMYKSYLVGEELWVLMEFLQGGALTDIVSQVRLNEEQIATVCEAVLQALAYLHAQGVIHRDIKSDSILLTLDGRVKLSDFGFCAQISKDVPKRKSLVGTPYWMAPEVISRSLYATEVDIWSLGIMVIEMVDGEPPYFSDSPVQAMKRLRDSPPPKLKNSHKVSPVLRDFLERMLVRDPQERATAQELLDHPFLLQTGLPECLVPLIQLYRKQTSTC
- Measurement context: at 1 µM
Numbers only; they are read as %.

Answered examples (8):
>  <Molecule>
Fc1ccc(-c2nc3n(c2-c2ccncc2)CCS3)cc1

>  <Unit spec>
%

>  <inhibition>
-7.43

$$$$
>  <Molecule>
O=C(Nc1n[nH]c2nc(-c3ccc(O)cc3)c(Br)cc12)C1CC1

>  <Unit spec>
%

>  <inhibition>
8.5

$$$$
>  <Molecule>
COc1cc(Nc2ncc3c(C)nc(-c4cccc(Oc5ccccc5)c4)n3n2)cc(OC)c1OC

>  <Unit spec>
%

>  <inhibition>
-0.38

$$$$
>  <Molecule>
COc1ccc2cc(-c3c(-c4ccncc4)nc(-c4ccc([S+](C)[O-])cc4C)n3C)ccc2c1 (stereo unspecified)

>  <Unit spec>
%

>  <inhibition>
1.24

$$$$
>  <Molecule>
Fc1ccc(-c2ncn(C3CCNCC3)c2-c2ccnc(Oc3ccc4c(c3)OCO4)n2)cc1

>  <Unit spec>
%

>  <inhibition>
-5.42

$$$$
>  <Molecule>
COc1ccc(-c2ccc3c(NC(=O)C4CC4)n[nH]c3n2)cc1

>  <Unit spec>
%

>  <inhibition>
-4.51

$$$$
>  <Molecule>
COc1ccc(C2=C(N3CCc4ccccc43)C(=O)NC2=O)cc1

>  <Unit spec>
%

>  <inhibition>
-1.91

$$$$
>  <Molecule>
C[C@@H](Oc1cc(-n2cnc3ccc(OC4CCN(C)CC4)cc32)sc1C(N)=O)c1ccccc1Cl

>  <Unit spec>
%

>  <inhibition>
-9.57

$$$$

(Q) Form field: inhibition recorded for `NS(=O)(=O)c1ccc(Nc2cc(-c3ccc(O)c(F)c3)n[nH]2)cc1` with Serine/threonine-protein kinase PAK 6 (Homo sapiens) (UniProt Q9NQU5) (enter value)
(A) -3.83

(Q) Form field: inhibition recorded for `Clc1ccc(CNc2nccc(-c3cnn4ncccc34)n2)cc1` with Serine/threonine-protein kinase PAK 6 (Homo sapiens) (UniProt Q9NQU5) (enter value)
(A) -0.19

(Q) Form field: inhibition recorded for `NC(=O)c1cc(-c2ccc(F)cc2)cc(-c2ccncc2)c1N` with Serine/threonine-protein kinase PAK 6 (Homo sapiens) (UniProt Q9NQU5) (enter value)
(A) -7.94

(Q) Form field: inhibition recorded for `COc1cc(Nc2ncc3c(C)nc(-c4cccc(C(F)(F)F)c4)n3n2)cc(OC)c1OC` with Serine/threonine-protein kinase PAK 6 (Homo sapiens) (UniProt Q9NQU5) (enter value)
(A) 11.2

(Q) Form field: inhibition recorded for `Cc1ccc(NC(=O)c2ccoc2)cc1-c1ccc(C(=O)NCC2CC2)cc1` with Serine/threonine-protein kinase PAK 6 (Homo sapiens) (UniProt Q9NQU5) (enter value)
(A) -2.77

(Q) Form field: inhibition recorded for `Fc1ccc(-c2c(-c3ccncc3)nc3n2CCS3)cc1` with Serine/threonine-protein kinase PAK 6 (Homo sapiens) (UniProt Q9NQU5) (enter value)
(A) -5.03

(Q) Form field: inhibition recorded for `NS(=O)(=O)c1ccc(N/N=C2\C(=O)Nc3ccc(-c4cnco4)cc32)cc1` with Serine/threonine-protein kinase PAK 6 (Homo sapiens) (UniProt Q9NQU5) (enter value)
(A) -6.6

(Q) Form field: inhibition recorded for `c1ccc(-c2n[nH]cc2-c2ccnc(-c3ccc(OCCN4CCOCC4)cc3)c2)nc1` with Serine/threonine-protein kinase PAK 6 (Homo sapiens) (UniProt Q9NQU5) (enter value)
(A) 3.66

(Q) Form field: inhibition recorded for `FC(F)(F)c1cccc(Nc2nccc(-c3cnn4nc(-c5ccccc5)ccc34)n2)c1` with Serine/threonine-protein kinase PAK 6 (Homo sapiens) (UniProt Q9NQU5) (enter value)
(A) -5.84

(Q) Form field: inhibition recorded for `CN1CCN(CCCNc2nc3ccc(Oc4ccc(NC(=O)Nc5cc(C(F)(F)F)ccc5F)cc4)cc3[nH]2)CC1` with Serine/threonine-protein kinase PAK 6 (Homo sapiens) (UniProt Q9NQU5) (enter value)
(A) -3.76

(Q) Form field: inhibition recorded for `NC(=O)c1cc(-c2ccncc2)cc(-c2ccccc2)c1N` with Serine/threonine-protein kinase PAK 6 (Homo sapiens) (UniProt Q9NQU5) (enter value)
(A) -5.82

(Q) Form field: inhibition recorded for Nc1nccc(-c2c(-c3ccc(F)cc3)ncn2C2CCC(O)CC2)n1 (stereo unspecified) with Serine/threonine-protein kinase PAK 6 (Homo sapiens) (UniProt Q9NQU5) (enter value)
(A) -1.54

(Q) Form field: inhibition recorded for `O=C1NC(=O)C(c2cccc(Cl)c2)=C1Nc1ccc(Cl)c(C(=O)O)c1` with Serine/threonine-protein kinase PAK 6 (Homo sapiens) (UniProt Q9NQU5) (enter value)
(A) -4.4
